# collection of IC50 values tested on full-length USP7 (Homo sapiens (Human))
Where a name gives a salt, the structure may show the parent alone.

// below: answered compounds
>  <compound>
Cc1cc(C(F)(F)F)nc(-c2ccnc3cc(CN4C(=O)C5C(C4=O)C5(C)C)sc23)c1C(=O)N1C[C@@H]2CCN[C@@H]2C1 (stereo partly drawn) [Example 163, hydrochloride]

>  <IC50>
500 to 1000 nM

$$$$
>  <compound>
Cc1cc(C(F)(F)F)nc(-c2ccnc3cc(CN4C(=O)C5C(C4=O)C5(C)C)sc23)c1C(=O)N1C[C@@H](N)[C@H](F)C1 (stereo partly drawn) [Example 117, dihydrochloride]

>  <IC50>
< 500 nM

$$$$
>  <compound>
Cc1cc(Cl)nc(-c2ccnc3cc(CN4C(=O)C5C(C4=O)C5(C)C)sc23)c1NC1CC(F)(F)C1 (stereo not drawn) [Example 123, 2,2,2-trifluoroacetate]

>  <IC50>
500 to 1000 nM

$$$$
>  <compound>
Cc1cc(C(F)(F)F)nc(-c2ccnc3cc(CN4C(=O)C5C(C4=O)C5(C)C)sc23)c1C[C@H]1CNCCO1 (stereo partly drawn) [Example 95, dihydrochloride]

>  <IC50>
< 500 nM

$$$$

Missing value: IC50, full-length USP7 (Homo sapiens (Human)), entry Cc1nc(C(F)(F)F)cc(-c2ccnc3cc(CN4C(=O)C5C(C4=O)C5(C)C)sc23)c1NC(=O)C1CCN(C(=O)C(F)(F)F)C1 (racemic) [Example 65, 2,2,2-trifluoroacetate] . Fill in?
> 10000 nM

How about this compound: Cc1cc(C)c(NC2CCNC2)c(-c2ccnc3cc(CN4C(=O)C5C(C4=O)C5(C)C)sc23)n1 (racemic) [Example 124, 2,2,2-trifluoroacetate]
< 500 nM

====

Counter-ions that a name gives are not always drawn.
What follows is a collection of IC50 values obtained with full-length USP7 (Homo sapiens (Human), UniProt Q93009).
Sequence (Q93009 whole entry): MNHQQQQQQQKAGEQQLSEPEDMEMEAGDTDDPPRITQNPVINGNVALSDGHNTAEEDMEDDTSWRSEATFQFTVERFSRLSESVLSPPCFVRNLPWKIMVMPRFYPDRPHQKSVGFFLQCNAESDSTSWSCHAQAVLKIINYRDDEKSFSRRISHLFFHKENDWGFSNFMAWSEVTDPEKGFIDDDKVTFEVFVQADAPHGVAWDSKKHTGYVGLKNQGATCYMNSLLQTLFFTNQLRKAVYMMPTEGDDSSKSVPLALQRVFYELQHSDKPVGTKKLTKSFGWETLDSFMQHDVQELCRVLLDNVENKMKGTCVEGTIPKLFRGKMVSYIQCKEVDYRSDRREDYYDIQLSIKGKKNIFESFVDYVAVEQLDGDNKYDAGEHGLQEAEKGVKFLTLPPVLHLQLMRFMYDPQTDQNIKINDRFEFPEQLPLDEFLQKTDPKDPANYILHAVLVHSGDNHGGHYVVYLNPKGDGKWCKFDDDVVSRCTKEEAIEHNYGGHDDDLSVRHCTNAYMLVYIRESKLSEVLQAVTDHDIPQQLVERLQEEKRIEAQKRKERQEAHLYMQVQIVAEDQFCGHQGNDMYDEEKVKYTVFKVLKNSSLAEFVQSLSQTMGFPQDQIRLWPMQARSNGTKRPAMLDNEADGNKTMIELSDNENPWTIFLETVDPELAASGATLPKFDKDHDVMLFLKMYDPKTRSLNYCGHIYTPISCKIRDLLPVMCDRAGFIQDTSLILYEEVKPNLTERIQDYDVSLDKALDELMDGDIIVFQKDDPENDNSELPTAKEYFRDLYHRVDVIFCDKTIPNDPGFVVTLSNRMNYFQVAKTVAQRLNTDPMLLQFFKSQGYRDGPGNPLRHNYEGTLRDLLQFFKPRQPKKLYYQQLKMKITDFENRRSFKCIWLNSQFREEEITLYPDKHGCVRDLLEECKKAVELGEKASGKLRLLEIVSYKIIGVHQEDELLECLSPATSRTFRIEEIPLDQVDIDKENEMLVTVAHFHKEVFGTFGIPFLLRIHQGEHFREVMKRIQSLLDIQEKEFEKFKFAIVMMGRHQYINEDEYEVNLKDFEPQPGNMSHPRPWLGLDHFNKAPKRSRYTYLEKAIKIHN

Here are 4 compounds together with their reported answers.
>  <compound>
Cc1nc(C(F)(F)F)cc(-c2ccnc3cc(CN4C(=O)C5C(C4=O)C5(C)C)sc23)c1NC(=O)C1CNC1 (stereo not drawn) [Example 66, 2,2,2-trifluoroacetate]

>  <IC50>
1000 to 10000 nM

$$$$
>  <compound>
Cc1cc(C(F)(F)F)nc(-c2ccnc3cc(CN4C(=O)C5C(C4=O)C5(C)C)sc23)c1C(=O)N1C[C@@H](N)C2(CC2)C1 (stereo partly drawn) [Example 173, hydrochloride]

>  <IC50>
< 500 nM

$$$$
>  <compound>
Cc1nc(C#N)cc(-c2ccnc3cc(CN4C(=O)C5C(C4=O)C5(C)C)sc23)c1C(=O)N1CC[C@@H](N)C1 (stereo partly drawn) [Example 8, 2,2,2-trifluoroacetate]

>  <IC50>
500 to 1000 nM

$$$$
>  <compound>
Cc1cc(C(F)(F)F)nc(-c2ccnc3cc(CN4C(=O)C5C(C4=O)C5(C)C)sc23)c1C(=O)N1CC[C@H](CN)C1 (stereo partly drawn) [Example 115, dihydrochloride]

>  <IC50>
500 to 1000 nM

$$$$

Fill in: IC50 of Cc1cc(Cl)nc(-c2ccnc3cc(CN4C(=O)C5C(C4=O)C5(C)C)sc23)c1NC1CC2(CNC2)C1 (stereo not drawn) [Example 131, hydrobromide] is ___
< 500 nM

And what about the compound Cc1cc(C(F)(F)F)nc(-c2ccnc3cc(CN4C(=O)C5C(C4=O)C5(C)C)sc23)c1C(=O)N1CCC2CNCC21 (racemic) [Example 72, dihydrochloride] ?
< 500 nM

====

systemName: UniProtKB Q93009
pIC50: −log10 of the molar value. Counter-ions that a name gives are not always drawn.
In this section, each of the molecules is paired with its reported pIC50.

Below, 4 molecules whose answers are already recorded.
>  <molecule>
Cc1nc(C(F)(F)F)cc(-c2ccnc3cc(CN4C(=O)C5C(C4=O)C5(C)C)sc23)c1OC1CCNC1 (racemic) [Example 21, 2,2,2-trifluoroacetate]

>  <pIC50>
> 6.30

$$$$
>  <molecule>
Cc1cc(C#N)nc(-c2ccnc3cc(CN4C(=O)C5C(C4=O)C5(C)C)sc23)c1C(=O)NC1CNC1 (centres unmarked) [Example 56, hydrochloride]

>  <pIC50>
5.00 to 6.00

$$$$
>  <molecule>
Cc1nc(C#N)cc(-c2ccnc3cc(CN4C(=O)C5C(C4=O)C5(C)C)sc23)c1NC1CCNC1 (centres unmarked) [Example 26, 2,2,2-trifluoroacetate]

>  <pIC50>
> 6.30

$$$$
>  <molecule>
Cc1cc(C(F)(F)F)nc(-c2ccnc3cc(CN4C(=O)C5C(C4=O)C5(C)C)sc23)c1C(=O)N1C[C@@H](C)[C@H](N)C1 (some centres unmarked) [Example 107, hydrochloride]

>  <pIC50>
> 6.30

$$$$

Please find the next molecule below.
Given the entry Cc1cc(C(F)(F)F)nc(-c2ccnc3cc(CN4C(=O)C5C(C4=O)C5(C)C)sc23)c1CN1CC[C@@H]2CNC[C@@H]21 (some centres unmarked) [Example 159, trihydrochloride] , what pIC50 was observed with UniProtKB Q93009?
> 6.30
